- System: U-251
- assayProcedure: NCI tumour cell line growth inhibition, 48 h
The source made the active and inactive calls. Rule as the data show it: active = GI50 up to about 1.1 µM and inactive = higher.
The reply should be one of these categories: active, inactive

[O-]c1on[n+]2c1c(Nc1ccc(Cl)cc1)nc1ccccc12	inactive
CC[C@H]1C=CCC[C@@]2(C[C@@H]3CC[C@@H]4[C@H](C(=O)OCCCCCCCCCCCCCCCC(=O)O)[C@]5(CCC[C@@H](C)O5)NC(=[N+]34)N2)O1	active
OC1COC(OCc2ccccc2)C(O)C1O (stereo not given)	inactive
CC(C(=O)c1ccncc1)c1ccccn1 (stereo not given)	inactive
O=c1ccc2ccccc2o1	inactive
O=C1NC(c2c(Cl)cccc2Cl)Nc2ccccc21 (stereo not given)	inactive
Cc1cc(S(=O)(=O)N/C(=C(\C#N)C(=O)c2ccccc2)[n+]2ccc(N(C)C)cc2)c([S-])cc1Cl	inactive
Cc1ccc2c(c1)C1C(CO2)C(c2ccccc2)=NN1c1ccccc1 (stereo not given)	inactive
CC(NP(=O)(c1ccccc1)c1ccccc1)c1ccccc1 (stereo not given)	inactive

Query block: Assay outcome for `O[C@@H]1CCC[C@@H]2NC[C@@H](c3ccc4c(c3)OCO4)[C@H]12` : what was it?
Result block: inactive

====

- Tested on: SF-268
- assayProcedure: NCI tumour cell line growth inhibition, 48 h
The source made the active and inactive calls. Cut-off read from the data, not from the text of the source: active = GI50 up to about 1.1 µM and inactive = higher.
measuredQuantity: GI50

# annotated cases, reported GI50 shown
CCOC(=O)c1c(Br)c(-c2ccc([N+](=O)[O-])cc2)c(Br)n1C	> 10 µM (inactive)
c1ccc2c[n+](CCCC[n+]3ccc4ccccc4c3)ccc2c1	> 100 µM (inactive)
O=Cc1c2ccccc2n2ccc3c4ccccc4[nH]c3c12	> 10 µM (inactive)
COC(=O)C1=C(c2cc(OC)c(OC)c(OC)c2)OC(c2cc(OC)c(OC)c(OC)c2)C1 (stereo unspecified)	46.2 µM (inactive)
C=C(c1ccccc1)[C@@]1(O)CCCC[C@H]1NC(c1ccccc1)c1ccccc1	13.6 µM (inactive)

Query block: Under SF-268: GI50 value of C=C(Cl)C(Cl)(CBr)CCC(Cl)C(C)C (stereo unspecified) ?
Result block: 1.72 µM (inactive)

Query block: Return GI50 measured with SF-268 given this compound: `CN1CCc2c(sc3nc(Nc4ccccc4)n(N)c(=O)c23)C1`
Result block: > 100 µM (inactive)

Query block: Find the measured GI50: item `CC1(C)S[C@@H]2[C@H](NC(=O)CCC[C@@H](N)C(=O)O)C(=O)N2[C@H]1C(=O)O` , target or system SF-268.
Result block: > 50 µM (inactive)

Query block: Query for SF-268: what GI50 does the record show for COc1cc2cc(C(=O)N3CC(CCl)c4c3cc(NC(=O)C(C)(C)c3ccccc3[N+](=O)[O-])c3ccccc43)[nH]c2c(OC)c1OC (stereo unspecified) ?
Result block: 1.88 µM (inactive)

Query block: What value of GI50 on SF-268 does `CC[C@]1(Cc2ccc(OC)c(OC)c2)C=[N+]([O-])O[C@H](OCc2ccccc2)[C@@H]1OC(C)=O` have?
Result block: 23.7 µM (inactive)

Query block: For SF-268, provide GI50 of `O=C1c2cscc2C(=O)c2c(OCc3ccccc3)ccc(OCc3ccccc3)c21` please.
Result block: > 100 µM (inactive)

====

- Test system: HOP-62
- assayProcedure: NCI tumour cell line growth inhibition, 48 h
Calls of active or inactive are those of the source. Rule as the data show it: active = GI50 up to about 1.1 µM and inactive = higher.
measuredQuantity: GI50

Study these solved cases before continuing.
CCOC(=O)/C=C\C(C#N)(C#N)/N=C/c1ccsc1	19.4 µM (inactive)
CC1(C)[C@@H]2CC[C@@]1(C)[C@H](O)[C@@H]2SCc1ccccc1	17.9 µM (inactive)
CC1=NN(C(=O)c2ccccc2O)C(=O)/C1=C/c1ccccc1O	0.236 µM (active)
COc1cc(/C=N\O)nc(-c2ccccn2)c1	0.137 µM (active)
O=[N+]([O-])c1ccc(Nc2cccc3c4cc[nH]c(-c5ccccc5)c-4nc23)c([N+](=O)[O-])c1	> 100 µM (inactive)
Nc1nc(Cl)c(N)c(NCC2(CO)CCC(CCc3ccccc3)C2)n1 (stereo unspecified)	17 µM (inactive)
N#Cc1c2c(c(Cl)n3c1nc1ccccc13)CCCC2	> 10 µM (inactive)
FC(F)(Sc1ncc[nH]1)c1nc2ccccc2o1	> 100 µM (inactive)
CSc1ccc2c(c1)c(CCN)c(C)n2Cc1ccccc1Cl	1.18 µM (inactive)
CCCCCCCCCCCCCCCCCC(=O)OCC1OC(OC)C(NC(=O)N(CCCl)N=O)C(O)C1O (stereo unspecified)	> 100 µM (inactive)

# input for lookup
Query block: # input compound: OC1COC(OCc2ccccc2)C(O)C1O (stereo unspecified) ; wanted: its GI50
Result block: > 100 µM (inactive)
